Target: human GLP-1 receptor (human, UniProt P43220 24-463)
Assay: cell-based or functional assay
Positions of bridges follow the written chain, without caps; N, C: chain ends. Non-standard residues stand in square brackets, D forms with d. No end group written: not given here. *: point of attachment. Acetyl(2-(4-imidazolyl)) = O=C(Cc1c[nH]cn1)*; Aib = CC(C)(N)C(=O)O
assay_readout: In vitro activity relative to native peptide (%), vs. GLP-1 (cAMP EC50)

INSERT INTO results (binder, test_value) VALUES
  ('{Acetyl(2-(4-imidazolyl))}-[Aib]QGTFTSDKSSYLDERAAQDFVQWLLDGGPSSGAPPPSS [trigonal agonist of SEQ ID NO: 38]', 2.3),
  ('H[Aib]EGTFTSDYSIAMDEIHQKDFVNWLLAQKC (bridge 16-20) [trigonal agonist of SEQ ID NO: 79]', 41.5),
  ('Y[Aib]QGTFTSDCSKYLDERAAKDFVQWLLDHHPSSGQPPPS (bridge 16-20) [trigonal agonist of SEQ ID NO: 72]', 11.5);
